Target: D(3) dopamine receptor (Homo sapiens, UniProt P35462)
Sequence (P35462 whole entry): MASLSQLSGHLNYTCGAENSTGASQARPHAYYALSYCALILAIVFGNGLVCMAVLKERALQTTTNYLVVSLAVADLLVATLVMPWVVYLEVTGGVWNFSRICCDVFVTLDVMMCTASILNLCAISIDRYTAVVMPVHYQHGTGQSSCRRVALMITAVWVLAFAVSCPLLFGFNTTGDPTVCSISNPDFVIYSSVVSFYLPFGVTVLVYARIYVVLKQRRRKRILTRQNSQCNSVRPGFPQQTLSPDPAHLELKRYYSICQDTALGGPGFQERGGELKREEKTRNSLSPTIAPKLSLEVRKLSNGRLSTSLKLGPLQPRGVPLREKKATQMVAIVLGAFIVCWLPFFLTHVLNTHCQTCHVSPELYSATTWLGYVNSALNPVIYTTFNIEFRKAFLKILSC
Assay: Antagonist activity at human dopamine D3 receptor expressed in CHO-K1 cells assessed as inhibition of dopamine-induced recruitment of beta-arrestin-2 at 10 uM after 90 mins by beta-galactosidase assay
Assay type: functional, cell-based
READOUT_TYPE: inhibition

>>> endpoint_result("COc1ccc2oc(C(=O)NCCC(F)CN3CCN(c4cccc(Cl)c4Cl)CC3)cc2c1 (stereo unspecified)")
"< 50%"
>>> endpoint_result("COc1ccc2[nH]c(C(=O)NCCC(F)CN3CCN(c4cccc(Cl)c4Cl)CC3)cc2c1 (stereo unspecified)")
"< 50%"
>>> endpoint_result("COc1ccccc1N1CCN(CC(F)CCNC(=O)c2cc3ccccc3[nH]2)CC1 (stereo unspecified)")
"< 50%"
>>> endpoint_result("COc1ccccc1N1CCN(CC(F)CCNC(=O)c2ccc3c(c2)Cc2ccccc2-3)CC1 (stereo unspecified)")
"< 50%"
>>> endpoint_result("O=C(NCCC(F)CN1CCN(c2cccc(Cl)c2Cl)CC1)c1ccc2c(c1)Cc1ccccc1-2 (stereo unspecified)")
"< 50%"
>>> endpoint_result("O=C(NCCC(F)CN1CCN(c2cccc(Cl)c2Cl)CC1)c1ccc2ccccc2c1 (stereo unspecified)")
"< 50%"

====

Target protein (sequence): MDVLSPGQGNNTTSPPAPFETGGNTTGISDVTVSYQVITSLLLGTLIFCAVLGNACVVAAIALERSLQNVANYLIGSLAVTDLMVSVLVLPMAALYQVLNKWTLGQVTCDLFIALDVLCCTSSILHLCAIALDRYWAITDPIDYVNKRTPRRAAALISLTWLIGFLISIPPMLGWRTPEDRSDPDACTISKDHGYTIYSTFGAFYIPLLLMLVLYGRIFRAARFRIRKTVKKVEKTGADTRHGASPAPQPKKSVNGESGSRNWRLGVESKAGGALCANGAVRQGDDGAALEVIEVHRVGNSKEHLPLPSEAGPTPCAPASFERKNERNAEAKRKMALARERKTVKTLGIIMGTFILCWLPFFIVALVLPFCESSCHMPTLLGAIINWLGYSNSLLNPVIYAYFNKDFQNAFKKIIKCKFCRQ
pKi: −log10 of the molar value.
The following compounds are listed with their measured pKi values.
READOUT_TYPE: pKi

>>> endpoint_result("O=C(NCCC(F)CN1CCN(c2cccc(Cl)c2Cl)CC1)c1ccc2c(c1)Cc1ccccc1-2 (stereo unspecified)")
5.22
>>> endpoint_result("O=C(NCCC(F)CN1CCN(c2cccc(Cl)c2Cl)CC1)c1ccc(-c2ccccn2)cc1 (stereo unspecified)")
6.80
>>> endpoint_result("COc1ccccc1N1CCN(CC(F)CCNC(=O)c2cc3ccccc3s2)CC1 (stereo unspecified)")
6.86
>>> endpoint_result("O=C(NCCC(F)CN1CCN(c2cccc(Cl)c2Cl)CC1)c1cc2ccccc2[nH]1 (stereo unspecified)")
6.65
>>> endpoint_result("COc1ccc2oc(C(=O)NCCC(F)CN3CCN(c4cccc(Cl)c4Cl)CC3)cc2c1 (stereo unspecified)")
6.30
>>> endpoint_result("COc1ccccc1N1CCN(CC(F)CCNC(=O)c2cc3ccccc3o2)CC1 (stereo unspecified)")
7.42

====

pKi: −log10 of the molar value.
Measured pKi on 5-hydroxytryptamine receptor 2A (Homo sapiens, UniProt P28223) follows.
Sequence (P28223 whole entry): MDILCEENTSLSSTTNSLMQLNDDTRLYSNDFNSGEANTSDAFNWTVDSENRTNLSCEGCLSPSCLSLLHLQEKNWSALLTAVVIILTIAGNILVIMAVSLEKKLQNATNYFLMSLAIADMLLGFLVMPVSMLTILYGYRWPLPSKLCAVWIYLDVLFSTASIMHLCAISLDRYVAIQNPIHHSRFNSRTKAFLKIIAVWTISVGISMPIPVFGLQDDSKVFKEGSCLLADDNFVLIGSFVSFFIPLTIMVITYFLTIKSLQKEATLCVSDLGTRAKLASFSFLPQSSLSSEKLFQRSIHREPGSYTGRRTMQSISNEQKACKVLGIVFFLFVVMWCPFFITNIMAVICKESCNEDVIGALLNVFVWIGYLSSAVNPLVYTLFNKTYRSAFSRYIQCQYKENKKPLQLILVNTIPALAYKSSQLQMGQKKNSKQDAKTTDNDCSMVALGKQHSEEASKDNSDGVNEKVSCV
READOUT_TYPE: pKi

>>> endpoint_result("COc1ccccc1N1CCN(CC(F)CCNC(=O)c2cc3ccccc3s2)CC1 (stereo not given)")
5.52
>>> endpoint_result("CN(CCC(F)CN1CCN(c2cccc(Cl)c2Cl)CC1)Cc1ccc2c(c1)Cc1ccccc1-2 (stereo not given)")
5.59
>>> endpoint_result("COc1ccccc1N1CCN(CC(F)CCNC(=O)c2cc3ccccc3[nH]2)CC1 (stereo not given)")
5.49
>>> endpoint_result("COc1ccccc1N1CCN(CC(F)CCNC(=O)c2ccc(-c3ccccn3)cc2)CC1 (stereo not given)")
5.69
>>> endpoint_result("COc1ccccc1N1CCN(CC(F)CCNC(=O)c2cc3ccccc3o2)CC1 (stereo not given)")
5.32

The origin of these recorded values is ChEMBL document CHEMBL1772985.
